- assay details: NCI Yeast Anticancer Drug Screen. Data for the sgs1 mgt1 strain (AID 161);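 further: 0% = growth of cultures given vehicle only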
- experimental conditions: S. cerevisiae sgs1 mgt1 strain, at 50.0 µM, hits give high values
This is part of a sample that, as a whole, favours compounds with a hit. Of some 79,000 tested, about 15% had one in any assay.

- molecule: "Oc1ccccc1C1SC(c2ccccc2O)SC(c2ccccc2O)S1 (centres undefined)"
  growth inhibition [%]: 95.7
- molecule: "NC1=NS(=O)(=O)c2ccccc21"
  growth inhibition [%]: 3.1
- molecule: "OCCCCN1CCCCC1"
  growth inhibition [%]: -13.2
- molecule: "COc1cc2c(cc1OC)C(Cc1cc(Br)c(OC)c(OC)c1)=[N+](C)CC2"
  growth inhibition [%]: -12.4
- molecule: "COC(=O)c1[nH]c(=O)[nH]c(=S)c1N"
  growth inhibition [%]: -10.6
- molecule: "CC(=O)N1CCCCCC1=O"
  growth inhibition [%]: 25.4
- molecule: "O=C(CCl)Nc1cc(Cl)c(Cl)cc1Cl"
  growth inhibition [%]: 58.1
- molecule: "O=C(O)CCCC1=C2CCC(=O)C=C2CCC1"
  growth inhibition [%]: -10.3
- molecule: "O=C(O)C1CCN(C(=O)Cc2ccccc2)CC1"
  growth inhibition [%]: -2.15
- molecule: "Clc1cccc2[nH]c(-c3ccncc3)nc12"
  growth inhibition [%]: -15.4
- molecule: "COc1cc(C)c(C(=O)c2ccccc2NS(=O)(=O)c2ccc(C)cc2)cc1OC"
  growth inhibition [%]: -1.5
- molecule: "CCOCCOc1nc(C)cc(C)c1C#N"
  growth inhibition [%]: -8.05
- molecule: "CCOc1ccccc1NC(=O)CC1SC(=Nc2ccc([N+](=O)[O-])cc2)NC1=O (centres undefined)"
  growth inhibition [%]: 10.3
- molecule: "CCc1ccc2c(c1)CCC(=O)O2"
  growth inhibition [%]: -4.8

----------
- assay details: NCI Yeast Anticancer Drug Screen. Data for the mec2-1 strain (AID 157)
- experimental conditions: S. cerevisiae mec2-1 strain, at 50.0 µM
Compounds without any hit were thinned out: in the full panel of roughly 79,000, 15% have a hit. Activity calls are given as the source filed them. Cut-off read from the data, not from the text of the source: active = growth inhibition above about 70%; inactive = the rest.
Classes used: Yes for active, No for inactive

- compound: "O=C(N/N=C\\c1ccc2c(c1)CCC2)c1cccc2ccccc12"
  label: "No"
- compound: "O=C1CCC=Cc2c(O)ccc(O)c21"
  label: "No"
- compound: "N#CC(NNC(=O)Cc1ccccc1)c1c(O)ccc2ccccc12 (configuration not stated)"
  label: "No"
- compound: "O=P(CCC(O)c1ccccc1)(c1ccccc1)c1ccccc1 (configuration not stated)"
  label: "No"
- compound: "CC(C)(NC(=O)c1ccccc1)NC(=O)c1ccccc1"
  label: "No"
- compound: "ONc1ncnc2nc[nH]c12"
  label: "No"
- compound: "COc1ccc(-c2cc(-c3cc(C)cc(Br)c3O)no2)cc1"
  label: "No"
- compound: "O=C(OCCCCO)c1cc([N+](=O)[O-])cc([N+](=O)[O-])c1"
  label: "No"
- compound: "CC(=O)Nc1ccc(C(=O)NN2C(=O)C(Cl)C2c2ccccc2O)cc1 (configuration not stated)"
  label: "No"
- compound: "CCCCCCCC(NC(C)=O)(C(=O)OCC)C(=O)OCC"
  label: "No"
- compound: "CSC(=NCCCCN=C(NS(=O)(=O)c1ccc(Cl)cc1)SC)NS(=O)(=O)c1ccc(Cl)cc1"
  label: "No"
- compound: "Cn1ccc(=O)c2ccccc21"
  label: "No"
- compound: "NC(N)=N/N=C/c1oc(-c2ccc(S(=O)(=O)O)o2)c(-c2ccc(S(=O)(=O)O)o2)c1[N+](=O)[O-]"
  label: "No"
- compound: "CSc1nc(SC)c2c(C(N)=S)[nH]nc2n1"
  label: "No"
- compound: "O=C1CC2(CCCCC2)CC(=O)N1"
  label: "No"
- compound: "O=C1c2ccccc2N2Oc3ccccc3C12c1ccccc1 (configuration not stated)"
  label: "No"
- compound: "C/C(=C\\c1ccccc1)C(=O)c1c(C)cc(C)cc1C"
  label: "No"
- compound: "CC1(c2ccc(C(O)c3ccccc3)s2)OCCO1 (configuration not stated)"
  label: "No"
- compound: "COc1ccc(NC(=S)NN)cc1"
  label: "No"
- compound: "N#CCC(=O)N/N=C(\\C(=O)Nc1ccc(Cl)c(Cl)c1)C1CN(c2ccccc2)N=C1N (configuration not stated)"
  label: "No"
- compound: "Cc1cccc(Cl)c1NC(=O)c1cccc([N+](=O)[O-])c1"
  label: "No"
- compound: "CC(=O)Nc1ccc(C(=O)C=O)cc1"
  label: "No"
- compound: "CC1(C)CC23C(=O)N(c4ccccc4)C(=Nc4ccccc4)NC2=CC(C#N)=C(C#N)C3O1 (configuration not stated)"
  label: "No"
- compound: "CCCCCCCCCCCCSC1=CC(=O)C(SCCCCCCCCCCCC)=CC1=O"
  label: "No"
- compound: "COc1cc(C(c2ccc3c(c2)OCO3)N2C(=O)CCC2C(=O)O)cc(OC)c1OC (configuration not stated)"
  label: "No"
- compound: "COc1ccc(C(C)=O)cc1CCCOC(C)=O"
  label: "No"
- compound: "O=C(/C=C(\\Br)c1ccccc1)c1ccccc1"
  label: "Yes"
- compound: "COc1ccc2c(=O)cc(-c3ccncc3)oc2c1OC"
  label: "No"
- compound: "CC(C)CC(NC(=O)COc1cc(Cl)ccc1Cl)C(=O)O (configuration not stated)"
  label: "No"
- compound: "Fc1ccc(C=C2c3ccccc3-c3ccccc32)cc1"
  label: "No"
- compound: "COCC(C)OC(=O)c1ccccc1 (configuration not stated)"
  label: "No"
- compound: "Cc1ccc(S(=O)(=O)N(C)c2cc(Cl)c(I)cc2Cl)cc1"
  label: "No"
